ASSAY_NAME: reduction of polyQ htt aggregates in cells – imaging, exon1htt(103Q)mCFP cells, high-content imaging, primary screen (AID 483);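 further: compound exposure lasted 3 days before fixation; percent of the per-plate median nuclei count of sample wells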
RUN_CONDITIONS: exon1htt(103Q)mCFP cell line, aggregate imaging, at 2 µM; measured here: cell count, toxicity
Kindly state nuclei count for each of the entries shown.
Value expressed in %; do not type the unit.

Q. If you can, please state the reported nuclei count value of `O=C(CNS(=O)(=O)c1ccccc1)NCc1ccccn1` .
A. 106

Q. If you can, please state the reported nuclei count value of O=C(NCC1COc2ccccc2O1)c1ccc(NC(=O)c2ccco2)cc1 (configuration not stated) .
A. 106

Q. If you can, please state the reported nuclei count value of CCn1cc(SCC(=O)NCC2CCCO2)c2ccccc21 (configuration not stated) .
A. 112

Q. If you can, please state the reported nuclei count value of `Fc1cccc(-c2cc3nc4c(c(N5CCN(c6cnccn6)CC5)n3n2)CCCC4)c1` .
A. 101

Q. If you can, please state the reported nuclei count value of O=C(C(Cc1ccccc1)n1cccc1)N1CCCCCC1 (configuration not stated) .
A. 104

Q. If you can, please state the reported nuclei count value of `Cc1nc(SCC(=O)NCc2ccco2)c2c(C)c(C)sc2n1` .
A. 85.7

Q. If you can, please state the reported nuclei count value of `O=C(NCc1ccco1)C1CCN(c2ccc(N3CCOCC3)nn2)CC1` .
A. 92.4

Q. If you can, please state the reported nuclei count value of Cc1ccc(CC2SC(=O)NC2=O)cc1Cl (configuration not stated) .
A. 97.9

Q. If you can, please state the reported nuclei count value of `O=C(C1CCN(S(=O)(=O)Cc2ccccc2)CC1)N1CCN(c2ncccn2)CC1` .
A. 67

Q. If you can, please state the reported nuclei count value of `CC(C)N(C=O)C1(C(=O)NC2CCCCC2)CCCCC1` .
A. 114

Q. If you can, please state the reported nuclei count value of `O=c1c2nnn(Cc3ccc(Cl)cc3)c2ncn1Cc1ccc(F)cc1` .
A. 130

Q. If you can, please state the reported nuclei count value of O=C(c1cnn2c(C(F)F)cc(-c3ccccc3)nc12)N1CCN2CCCC2C1 (configuration not stated) .
A. 100

Q. If you can, please state the reported nuclei count value of `O=C(Nc1ccc2c(c1)OCCO2)c1cnc2n(c1=O)CCS2` .
A. 78.2

Q. If you can, please state the reported nuclei count value of `O=C(c1nn2cccnc2c1Cl)N1CCN(c2ccccc2)CC1` .
A. 80.1

Q. If you can, please state the reported nuclei count value of `CS(=O)(=O)N(CC(=O)Nc1ccc2c(c1)OCCO2)Cc1ccccc1` .
A. 107

Q. If you can, please state the reported nuclei count value of `CCN(c1ccc(OC)cc1)S(=O)(=O)c1ccc2c(c1)CCN2C(=O)CCC(=O)O` .
A. 92.1

Q. If you can, please state the reported nuclei count value of `COCC(=O)NC(c1ccccc1)c1ccccc1` .
A. 100

Q. If you can, please state the reported nuclei count value of `COc1cc(OC)c(C(=O)Nc2ncn[nH]2)cc1OC` .
A. 107

Q. If you can, please state the reported nuclei count value of `CCN1CCN(c2nc(C)nc3c2sc(=S)n3C)CC1` .
A. 82.9

Q. If you can, please state the reported nuclei count value of Cc1nn(Cc2ccccc2Cl)c(C)c1NC(=O)C1C2CCC(O2)C1C(=O)O (configuration not stated) .
A. 101

Q. If you can, please state the reported nuclei count value of `O=C(O)c1ccc(S(=O)(=O)Cc2ccccc2)cc1` .
A. 88.3

Q. If you can, please state the reported nuclei count value of `Cc1cc(C)c(S(=O)(=O)N(C)CC(N)=O)c(C)c1` .
A. 103

Q. If you can, please state the reported nuclei count value of `O=C(c1ccc2snnc2c1)N1CCOCC1` .
A. 107

Q. If you can, please state the reported nuclei count value of `Cc1nc2ccccn2c1C(=O)NCCCN1CCOCC1` .
A. 102

Q. If you can, please state the reported nuclei count value of `COc1cc(OC)cc(-c2nc3cc(C)ccc3o2)c1` .
A. 90.1

Q. If you can, please state the reported nuclei count value of Oc1ccccc1C1=Nc2nc3ccccc3n2C(c2ccccc2)C1 (configuration not stated) .
A. 107

Q. If you can, please state the reported nuclei count value of `CSc1nnc(-c2cnccn2)n1Cc1ccccc1` .
A. 101

Q. If you can, please state the reported nuclei count value of `COc1cc(N=c2ssnc2Cl)cc(OC)c1` .
A. 74.7

Q. If you can, please state the reported nuclei count value of CC(OC(=O)c1cccc(NS(C)(=O)=O)c1)C(=O)Nc1ccc(N2CCOCC2)cc1 (configuration not stated) .
A. 101

Q. If you can, please state the reported nuclei count value of `CCOCCCNC(=O)c1c[nH]c2ccc(S(=O)(=O)Nc3cccc(OC)c3)cc2c1=O` .
A. 99.2

Q. If you can, please state the reported nuclei count value of `CC1=Nn2c(nnc2-c2ccccc2)SC1` .
A. 121

Q. If you can, please state the reported nuclei count value of Cc1ccc(CN2C(=O)CCC2C(=O)NCC2CCCO2)cc1 (configuration not stated) .
A. 91

Q. If you can, please state the reported nuclei count value of `Fc1cccc2sc(Nc3nnc(-c4ccco4)o3)nc12` .
A. 109

Q. If you can, please state the reported nuclei count value of `O=c1cc(CSc2nnnn2-c2ccccc2)nc2scc(-c3ccccc3)n12` .
A. 114

Q. If you can, please state the reported nuclei count value of CC12CCC(C(=O)O)(c3nc(C#N)c(C#N)nc31)C2(C)C (configuration not stated) .
A. 90.9

Q. If you can, please state the reported nuclei count value of `O=C(c1ccc(=O)[nH]c1)N(Cc1ccco1)C1(C(=O)NC2CCCC2)CCCCC1` .
A. 85.1

Q. If you can, please state the reported nuclei count value of O=C(Nc1ccc(O)cc1)C1CCCN1S(=O)(=O)c1ccc(F)cc1 (configuration not stated) .
A. 90

Q. If you can, please state the reported nuclei count value of `CCN(CC)CCOC(=O)c1cccc(OC)c1` .
A. 114

Q. If you can, please state the reported nuclei count value of `Cc1nnc(SCCn2c(N3CCC(Cc4ccccc4)CC3)nc3c2c(=O)[nH]c(=O)n3C)s1` .
A. 79.6

Q. If you can, please state the reported nuclei count value of `O=C(Nc1nnc(SCC(=O)N2CCCCC2)s1)C1CCCCC1` .
A. 99.2

Q. If you can, please state the reported nuclei count value of `c1ccc(-c2cn3cccnc3n2)cc1` .
A. 92.7

Q. If you can, please state the reported nuclei count value of CC(OC(=O)c1ccco1)C(=O)NCc1cccs1 (configuration not stated) .
A. 83

Q. If you can, please state the reported nuclei count value of `COc1ccc(OC)c(N2Cc3cc(C)c(C)cc3C2)c1` .
A. 79.6

Q. If you can, please state the reported nuclei count value of `O=C(Nc1cccnc1)c1cc2c(ccc3ccccc32)o1` .
A. 104

Q. If you can, please state the reported nuclei count value of CCOC(=O)CN1CC23C=CC(O2)C(C(=O)NCc2ccc(F)cc2)C3C1=O (configuration not stated) .
A. 106

Q. If you can, please state the reported nuclei count value of `COC(=O)c1sc(S(=O)(=O)N2CCN(c3ccccc3)CC2)c(C(=O)OC)c1C` .
A. 76.7

Q. If you can, please state the reported nuclei count value of `COc1ccc(N2CCN(C(=O)CSc3ccccc3)CC2)cc1` .
A. 105

# credit: PubChem BioAssay
